# procedure.text: Mammalian cytotoxicity assay (resazurin), HepG2
# reported.conditions: human, HepG2 cells
compounds and their reported CC50 at 24 h

These recorded examples may help you get a feel for the data.
compound: Cc1ccc(Cn2c(C)cn3cc([N+](=O)[O-])nc3c2=O)cc1 [25h]
value.reported: > 100 µM

compound: O=[N+]([O-])c1cn2cc(-c3ccccc3)nc(OCCO)c2n1 [24e]
value.reported: > 100 µM

Fill in: CC50 at 24 h of Cc1cn2cc([N+](=O)[O-])nc2c(=O)n1Cc1cccc(OC(F)(F)F)c1 [25j] is ___
> 100 µM

Look up CC50 at 24 h for this compound: Cc1ccc(COc2nc(C)c(C)n3cc([N+](=O)[O-])nc23)cc1 [26e]
> 100 µM

# query: CC50 at 24 h of entry Cc1c(C)n2cc([N+](=O)[O-])nc2c(=O)n1Cc1cccc(OC(F)(F)F)c1 [26f]
25.6 to 80 µM

###

# procedure.text: Mammalian cytotoxicity, liver HepG2 and kidney HEK293 cell lines stated together
# reported.conditions: human, HepG2 and HEK293 cells
reported.endpoint: CC50 at 24 h

Which CC50 at 24 h reading was recorded for the compound O=c1c2nc([N+](=O)[O-])cn2ccn1C1CCCCC1 [17t] ?
98 to 123 µM

###

solubility at 24 h: recorded values
# procedure.text: Kinetic solubility determination by LC-UV
# reported.conditions: PBS, pH 7.4, Solubility µM (PBS), PBS pH 7.4, 24 h, room temperature, 1% DMSO

The following compounds have reported results that may help.
compound: O=[N+]([O-])c1cn2cc(-c3ccccc3)nc(OCCO)c2n1 [24e]
reported.endpoint: solubility at 24 h
value.reported: < 5 µM

compound: Cc1cn2cc([N+](=O)[O-])nc2c(OCc2ccc(OC(F)(F)F)cc2)n1 [25g]
reported.endpoint: solubility at 24 h
value.reported: < 5 µM

Consider the compound Cc1cccc(Cn2ccn3cc([N+](=O)[O-])nc3c2=O)c1 [17g] and give its measured solubility at 24 h.
< 5 µM

For the compound Cc1c(C)n2cc([N+](=O)[O-])nc2c(=O)n1Cc1ccccc1OC(F)(F)F [26h] , what solubility at 24 h is on record?
4.6 µM

Could you share which solubility at 24 h value was measured for O=c1c2nc([N+](=O)[O-])cn2ccn1Cc1ccccc1OC(F)(F)F [17i] ?
< 5 µM

Which solubility at 24 h value belongs to Cc1cn2cc([N+](=O)[O-])nc2c(OCc2ccccc2OC(F)(F)F)n1 [25m] ?
< 5 µM

Returns the measured solubility at 24 h for the input compound. Input: Cc1cn2cc([N+](=O)[O-])nc2c(=O)n1Cc1ccccc1OC(F)(F)F [25l]
< 5 µM

Any idea what solubility at 24 h was measured for Cc1cn2cc([N+](=O)[O-])nc2c(OCCO)n1 [25e] ?
193 µM

Consider the compound Cc1nc(OCc2ccccc2OC(F)(F)F)c2nc([N+](=O)[O-])cn2c1C [26i] and give its measured solubility at 24 h.
< 5 µM

I am curious: what solubility at 24 h value has been reported for CC(=O)OCCOc1nc(-c2ccccc2)cn2cc([N+](=O)[O-])nc12 [24c] ?
< 5 µM

// lookup solubility at 24 h for CC(c1ccc(F)cc1)n1ccn2cc([N+](=O)[O-])nc2c1=O (centres unmarked) [17l]
< 10 µM

I'd like to know its solubility at 24 h. The compound in question is Cc1ccc(CCn2ccn3cc([N+](=O)[O-])nc3c2=O)cc1 [17n]
< 5 µM

solubility at 24 h for Cc1[nH]c(=O)c2nc([N+](=O)[O-])cn2c1C [26a] ?
> 200 µM

Bench note: what solubility at 24 h did Cc1cn2cc([N+](=O)[O-])nc2c(=O)n1Cc1cccc(OC(F)(F)F)c1 [25j] show?
< 5 µM

Return reported solubility at 24 h; argument: O=c1[nH]ccn2cc([N+](=O)[O-])nc12 [17a, 2-Nitroimidazo[1,2-a]pyrazin-8(7H)-one]
> 200 µM

# lookup: solubility at 24 h of O=c1c2nc([N+](=O)[O-])cn2ccn1C1CCCCC1 [17t]
< 10 µM

Given the entry Cc1nc(OCc2cccc(OC(F)(F)F)c2)c2nc([N+](=O)[O-])cn2c1C [26g] , report its measured solubility at 24 h.
< 5 µM

Which solubility at 24 h value is on record for O=C(Cn1ccn2cc([N+](=O)[O-])nc2c1=O)N1CCOCC1 [17r] ?
194 µM

I would be grateful if you could share the reported solubility at 24 h for CC(=O)OCCn1c(-c2ccccc2)cn2cc([N+](=O)[O-])nc2c1=O [24b] .
187 µM

# input compound: O=c1c2nc([N+](=O)[O-])cn2ccn1CCO [17p] ; wanted: its solubility at 24 h
> 200 µM

###

# System: T. b. brucei (strain 427, BS427)
# procedure.text: 384-well resazurin viability assay, T. b. brucei bloodstream parasites
# Type: cell-based
# reported.conditions: Trypanosoma brucei, BS427, n = 2; read-out: antiparasitic IC50 T. b. brucei
reported.endpoint: IC50

molecule: CC(=O)OCCn1c(-c2ccccc2)cn2cc([N+](=O)[O-])nc2c1=O [24b]
IC50: < 1 µM
--
molecule: CC(=O)OCCn1c(C)cn2cc([N+](=O)[O-])nc2c1=O [25b]
IC50: < 1 µM
--
molecule: O=c1c2nccn2ccn1Cc1ccc(F)cc1 [20c]
IC50: > 40 µM

Please turn your attention to the following entry.
What value of measured IC50 is listed for O=c1c2nccn2ccn1Cc1ccccc1 [20b, 7-Benzylimidazo[1,2-a]pyrazin-8(7H)-one] ?
> 40 µM

###

# System: L. donovani MHOM/IN/80/DD8 (ATCC50212)
# procedure.text: L. donovani DD8 intracellular (THP-1) amastigote assay
# Format: cell-based
# reported.conditions: Leishmania donovani, read-out: antiparasitic IC50 L. donovani
pIC50: −log10 of the molar value.
reported.endpoint: pIC50

molecule: O=c1c2nc([N+](=O)[O-])cn2ccn1CCc1ccc(OC(F)(F)F)cc1 [17m]
pIC50: < 4.10
--
molecule: Cc1cn2cc([N+](=O)[O-])nc2c(=O)[nH]1 [25a]
pIC50: < 4.10
--
molecule: Cc1[nH]c(=O)c2nc([N+](=O)[O-])cn2c1C [26a]
pIC50: < 4.10
--
molecule: Cc1cn2cc([N+](=O)[O-])nc2c(=O)n1CCO [25d]
pIC50: < 4.10
--
molecule: O=c1c2nc([N+](=O)[O-])cn2ccn1Cc1cccc(C(F)(F)F)c1 [17h]
pIC50: < 4.40
--
molecule: O=C(Cn1ccn2cc([N+](=O)[O-])nc2c1=O)N1CCOCC1 [17r]
pIC50: < 4.10
--
molecule: O=c1c2nc([N+](=O)[O-])cn2ccn1Cc1ccc(F)cc1F [17j]
pIC50: < 4.40
--
molecule: O=c1c2nc([N+](=O)[O-])cn2ccn1CCO [17p]
pIC50: < 4.10

GET /values?readout=pIC50&item= O=c1c2nc([N+](=O)[O-])cn2ccn1Cc1ccccc1OC(F)(F)F [17i]
< 4.40

Data request, read-out pIC50, for Cc1cn2cc([N+](=O)[O-])nc2c(OCc2ccc(OC(F)(F)F)cc2)n1 [25g]
< 4.10

Item Cc1nc(OCc2ccc(OC(F)(F)F)cc2)c2nc([N+](=O)[O-])cn2c1C [26c] has what recorded pIC50?
< 4.10

# input molecule: CC(=O)OCCOc1nc(C)cn2cc([N+](=O)[O-])nc12 [25c] ; wanted: its pIC50
< 4.10

Which pIC50 is reported for this molecule? O=c1c2nc([N+](=O)[O-])cn2ccn1Cc1ccccn1 [17k]
< 4.10

###

Entries and their measured antibacterial MIC ESKAPE follow.
# Tested on: ESKAPE pathogens S. aureus (ATCC 43300), E. coli (ATCC 25922), K. pneumoniae (ATCC 700603), A. baumannii (ATCC 19606), P. aeruginosa (ATCC 27853)
# procedure.text: Broth microdilution MIC assay, ESKAPE pathogens
# Format: cell-based

compound: Cc1ccc(Cn2ccn3cc([N+](=O)[O-])nc3c2=O)cc1 [17d]
value.reported: >32 µg/mL

Find the recorded antibacterial MIC ESKAPE belonging to O=c1c2nc([N+](=O)[O-])cn2ccn1CCO [17p] and report it.
>32 µg/mL

GET /values?readout=antibacterial MIC ESKAPE&item= CC(=O)OCCn1ccn2cc([N+](=O)[O-])nc2c1=O [17o]
>32 µg/mL

I would be grateful if you could share the reported antibacterial MIC ESKAPE for O=c1c2nc([N+](=O)[O-])cn2ccn1Cc1ccc(OC(F)(F)F)cc1 [17c] .
> 32 µg/mL

I'd like to know its antibacterial MIC ESKAPE. The compound in question is O=c1c2nc([N+](=O)[O-])cn2ccn1Cc1ccc(F)cc1F [17j]
>32 µg/mL
